meta.source: the Human Domainome abundance scans (Beltran et al. 2025)

B1: Histone-lysine N-methyltransferase SETD2, residues 2382 to 2430; numbered along this chain, Q9BYW2 (parent)
chain: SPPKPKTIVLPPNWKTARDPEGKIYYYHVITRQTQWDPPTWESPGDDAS

# Variants of: B1
# Method Notes: abundance fitness (aPCA) (normalised: wild type 0, dead -1); higher = more abundant; growth selection in yeast, the domain comes from the species named
# Condition Details: Homo sapiens
Quick rule for you: abundance fitness at -0.2 or higher means Satisfied, lower means Not satisfied.

# Variant Description, Group
records = [
    ("D47F", "Not satisfied"),
    ("K23W", "Not satisfied"),
    ("I30N", "Satisfied"),
    ("I30D", "Not satisfied"),
    ("P12F", "Not satisfied"),
    ("G45T", "Satisfied"),
    ("T40M", "Satisfied"),
    ("E42K", "Satisfied"),
    ("K6T", "Satisfied"),
    ("K23L", "Not satisfied"),
    ("R18W", "Not satisfied"),
]
